# SYSTEM: Cathepsin S (Homo sapiens, UniProt P25774)
# Sequence (P25774 whole entry): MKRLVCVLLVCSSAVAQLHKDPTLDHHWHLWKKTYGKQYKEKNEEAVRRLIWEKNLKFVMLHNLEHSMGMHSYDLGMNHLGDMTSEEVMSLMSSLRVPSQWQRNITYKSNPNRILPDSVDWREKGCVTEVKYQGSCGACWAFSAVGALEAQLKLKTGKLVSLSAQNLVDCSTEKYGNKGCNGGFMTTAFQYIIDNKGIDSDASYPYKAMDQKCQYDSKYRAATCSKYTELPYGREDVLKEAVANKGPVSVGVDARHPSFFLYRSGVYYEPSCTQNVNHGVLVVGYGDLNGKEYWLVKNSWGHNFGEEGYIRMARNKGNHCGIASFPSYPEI
# PROCEDURE_SUMMARY: Inhibition of cathepsin S in human JY cells assessed as invariant chain li degradation by Western blotting
# Format: cell-based
MEASUREMENT_LABEL: IC50 (µM)

SMILES_TEXT: CS(=O)(=O)N1CCc2c(c(-c3ccc(Cl)c(C#Cc4ccc(CN[C@@H](CO)c5ccccc5)cc4)c3)nn2CCCN2CCOCC2)C1
SCALE_UNIT: µM
IC50: 1.7

1 = CS(=O)(=O)N1CCc2c(c(-c3ccc(Cl)c(C#Cc4ccc(CNCCc5ccccc5)cc4)c3)nn2CCCN2CCOCC2)C1
2 = CS(=O)(=O)N1CCc2c(c(-c3ccc(Cl)c(C#Cc4ccc(CN)cc4)c3)nn2CCCN2CCOCC2)C1
3 = CS(=O)(=O)N1CCc2c(c(-c3ccc(Cl)c(C#Cc4ccc(Cl)cc4)c3)nn2C[C@@H](O)CN2CCC(C3CCNCC3)CC2)C1
Q: Arrange these molecules by their IC50, starting with the largest number. Returns: the labels listed in the requested order.
A: 2, 1, 3

A = CC(=O)N1CCC(C2CCN(C[C@H](O)Cn3nc(-c4ccc(Cl)c(C#Cc5ccc(Cl)cc5)c4)c4c3CCN(S(C)(=O)=O)C4)CC2)CC1
B = CS(=O)(=O)N1CCc2c(c(-c3ccc(Cl)c(C#Cc4ccc(CNCc5ccc(Cl)cc5)cc4)c3)nn2CCCN2CCOCC2)C1
Q: Among A and B , whose measured IC50 is the smaller figure? Please reply using the label of the selected record.
A: B

Where do the numbers come from? From ChEMBL document CHEMBL1154180.
